- Tested on: PC-14
- assayExplanation: relative viability (nuclei count vs DMSO), 5 days (fraction); higher = more cells survive
- conditionLabel: first compound 8 µM
I'd appreciate it if you could supply relative viability values for the items below.

// below: answered molecules
molecule	relative viability
O=c1cc(-c2cccc3c2Sc2ccccc2S3)oc(N2CCOCC2)c1 + O=C(CCCCCCC(=O)Nc1ccccc1)NO [Vorinostat] (partner 1 µM)	0.701
O=c1cc(-c2cccc3c2Sc2ccccc2S3)oc(N2CCOCC2)c1 + COc1cccc2cc(-c3nc([C@H]4CC[C@H](C(=O)O)CC4)n4ncnc(N)c34)[nH]c12 [OSI-027] (partner 0.5 µM)	1.02
O=c1cc(-c2cccc3c2Sc2ccccc2S3)oc(N2CCOCC2)c1 + CC(=O)c1c(C)c2cnc(Nc3ccc(N4CCNCC4)cn3)nc2n(C2CCCC2)c1=O [Palbociclib] (partner 0.5 µM)	0.489

Ask: Indicate the recorded relative viability value for this molecule: O=c1cc(-c2cccc3c2Sc2ccccc2S3)oc(N2CCOCC2)c1 + CC(C)C[C@H](NC(=O)[C@H](Cc1ccccc1)NC(=O)c1cnccn1)B(O)O [Bortezomib] (partner 0.002 µM)
Reply: 0.882
